# target_entity: UDP-N-acetylmuramate--L-alanine ligase (Pseudomonas aeruginosa (strain ATCC 15692 / DSM 22644 / CIP 104116 / JCM 14847 / LMG 12228 / 1C / PRS 101 / PAO1), UniProt Q9HW02)
# test_protocol: P. aeruginosa MurC assay
# condition_description: 25 °C
measurement_kind: IC50 (nM)

{"compound_structure": "Cn1nc(Nc2nc(N[C@H](CO)C3CCCCC3)nc3n[nH]cc23)cc1C(C)(C)C", "IC50 (nM)": 5}

1. Cc1cc([C@H](CO)Nc2nc(Nc3cc(C(C)(C)C)n(C)n3)c3c[nH]nc3n2)on1
2. CC(C)c1cc(Nc2nc(N[C@H](CO)C3CCCCC3)nc3n[nH]cc23)[nH]n1
3. Cn1nc(Nc2nc(N[C@@H](COC(=O)NCCN)c3ccccc3)nc3n[nH]cc23)cc1C(C)(C)C
Could you please sort these 3 entries by IC50 from high to low? Please list the labels in the order you were asked to rank them. 2, 1, 3

----------
# target_entity: UDP-N-acetylmuramate--L-alanine ligase (Pseudomonas aeruginosa (strain ATCC 15692 / DSM 22644 / CIP 104116 / JCM 14847 / LMG 12228 / 1C / PRS 101 / PAO1), UniProt Q9HW02)
# test_protocol: P. aeruginosa MurC assay
# condition_description: 25 °C
measurement_kind: IC50 (nM)

{"molecule": "Cn1nc(Nc2nc(N[C@@H](COC(=O)NCCN3CCC(=O)N3)c3ccccc3)nc3n[nH]cc23)cc1C(C)(C)C", "quantitative_readout": 7}
{"molecule": "Cn1nc(Nc2nc(NC(CO)C3CCOCC3)nc3n[nH]cc23)cc1C(C)(C)C (centres undefined)", "quantitative_readout": 11}
{"molecule": "CC(C)[C@H](CO)Nc1nc(Nc2cc(C(C)(C)C)n(C)n2)c2c[nH]nc2n1", "quantitative_readout": 13}
{"molecule": "Cn1nc(Nc2nc(N[C@@H](CO)c3ccncc3Cl)nc3n[nH]cc23)cc1C(C)(C)C", "quantitative_readout": 8}
{"molecule": "Cn1nc(Nc2nc(N[C@@H](CO)C3CCCCC3)nc3n[nH]cc23)cc1C(C)(C)C", "quantitative_readout": 0.6}
{"molecule": "Cn1nc(Nc2nc(N[C@@H](CO)c3ccccc3)nc3n[nH]cc23)cc1C(C)(C)C", "quantitative_readout": 1}
{"molecule": "Cn1nc(Nc2nc(N[C@@H](COC(=O)N3CCOC(CN)C3)c3ccccc3)nc3n[nH]cc23)cc1C(C)(C)C (some centres undefined)", "quantitative_readout": 0.6}

a. COc1ccc([C@H](CO)Nc2nc(Nc3cc(C(C)(C)C)n(C)n3)c3c[nH]nc3n2)cc1
b. COc1cc([C@H](CO)Nc2nc(Nc3cc(C(C)(C)C)n(C)n3)c3c[nH]nc3n2)ccn1
Would you let me know which has the greater IC50 value, a or b ? State the label of the item chosen. a
(a: 4 nM, b: 1.2 nM)

----------
# target_entity: UDP-N-acetylmuramate--L-alanine ligase (Pseudomonas aeruginosa (strain ATCC 15692 / DSM 22644 / CIP 104116 / JCM 14847 / LMG 12228 / 1C / PRS 101 / PAO1))
# test_protocol: P. aeruginosa MurC assay
# condition_description: 25 °C
pIC50: −log10 of the molar value.
measurement_kind: pIC50

{"molecule": "Cn1nc(Nc2nc(N[C@@H](COC(=O)NO)c3ccccc3)nc3n[nH]cc23)cc1C(C)(C)C", "quantitative_readout": 8.22}

1. Cn1nc(Nc2nc(N[C@@H](CO)c3cccnc3)nc3n[nH]cc23)cc1C(C)(C)C
2. Cn1nc(Nc2nc(N[C@@H](COC(=O)NCc3cc(=O)c(O)cn3O)c3ccccc3)nc3[nH]ncc23)cc1C(C)(C)C
3. OC[C@@H](Nc1nc(Nc2cc(C3CC3)n[nH]2)c2c[nH]nc2n1)C1CCCCC1
4. OCC1CCCCN1c1nc(Nc2cc(C3CC3)[nH]n2)c2cn[nH]c2n1 (stereo not drawn)
Could you please sort these 4 entries by pIC50 from high to low? Please list the labels in the order you were asked to rank them. 2, 1, 3, 4

a. Cn1nc(Nc2nc(N[C@@H](CO)c3ccccn3)nc3n[nH]cc23)cc1C(C)(C)C
b. Cn1nc(Nc2nc(N[C@@H](COC(=O)NCCO)c3ccccc3)nc3n[nH]cc23)cc1C(C)(C)C
Record comparison, field pIC50: mark the lower of a and b . State the label of the item chosen. a
(a: 8.10, b: 8.70)
